assayedTarget: CRF1R
experimentNotes: cell-based or functional assay
Ends that are not written are not given here.
# CRF1R EC50 listing for each entry below

>  <binder>
IVLSLDVPIGLLQILLEQERQRAAREQATTNARILARV-NH2 [SEQ ID NO 111]

>  <CRF1R EC50>
> 100 nM

$$$$
>  <binder>
ZGPPISIDLPFQLLRKMIEIEKQEKEKQQATNNRLLLDTI (C-terminal amide) [SEQ ID NO 14]

>  <CRF1R EC50>
109 nM

$$$$
>  <binder>
IVLSLDVPIGLLQILLEQEKEKKRKETNARILARV-NH2 [SEQ ID NO 132]

>  <CRF1R EC50>
> 100 nM

$$$$
>  <binder>
ZGPPISIDLPFQLLRKMIEIEKQEKEKQQATTNARILARV (C-terminal amide) [SEQ ID NO 148]

>  <CRF1R EC50>
295 nM

$$$$
>  <binder>
ZGPPISIDLPSYLLRKMIEIEKQEKEKQQAANNRLLLDTI (C-terminal amide) [SEQ ID NO 56]

>  <CRF1R EC50>
> 100 nM

$$$$

Exam item: Any idea what its CRF1R EC50 is? The binder is ZGPPISIDLPITLLRKMIEIEKQEKEKQQAANNRLLLDTI (C-terminal amide) [SEQ ID NO 24]
Marked response: > 1000 nM

Exam item: Queued: IVLSLDVPIGLLQILLEQEKQRAAREQATTNARILARV-NH2 [SEQ ID NO 115]
Marked response: > 100 nM

Exam item: Queued: SQEPPISLDLTIHLLREVLEMTKADQLAQQAHSNRKLLDIA-NH2 [SEQ ID NO 87]
Marked response: 100 nM

Reference source for all entries: patent US20030148956A1
